Please go through the items and note down their IC50.
target: HLA DRB1 *0101 (Homo sapiens, UniProt P01903+P01911, A100R/D57E/F55L/F60I/F76Y/I96L/L162R/M171V/P40L/Q125E/R42F/V115G/Y59C); experiment: IC50nM to purified HLA | DRB1 *0101
Where no end group is shown, it is not given here.
Quick reminder: number only, in nM, skip the unit.

Asked: Fill blank: measured IC50 of the sequence AAAHFVAAFTLKADA [SEQ ID NO: 33] is ____.
Given back: 6.7

Asked: Fill blank: measured IC50 of the sequence AAAHFVAANTLHAAA [SEQ ID NO: 29] is ____.
Given back: 4.1

Asked: Fill blank: measured IC50 of the sequence AAAEFVAANTLHAAA [SEQ ID NO: 49] is ____.
Given back: 9

Asked: Fill blank: measured IC50 of the sequence AAAEFVAAYTLHAAA [SEQ ID NO: 47] is ____.
Given back: 3.9

Asked: Fill blank: measured IC50 of the sequence AAAHFVAAYTLKAEA [SEQ ID NO: 37] is ____.
Given back: 6.9

Asked: Fill blank: measured IC50 of the sequence AAAHFVAAFTLHAAA [SEQ ID NO: 28] is ____.
Given back: 4

Asked: Fill blank: measured IC50 of the sequence AAAHFVAANTLKAEA [SEQ ID NO: 39] is ____.
Given back: 7.1

Asked: Fill blank: measured IC50 of the sequence AAANFVAAWTLHAAA [SEQ ID NO: 51] is ____.
Given back: 4.5
